# measured_on: T1, COX14 peptide complexed with HLA-A*02:01 on T2 cells (human)
# T1 construct: whole, on cells
# protocol_notes: flow cytometry, peptide-loaded T2 cells;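 further: binding of single-chain Fv antibody constructs, raised in XenoMouse, to peptide-pulsed T2 cells measured by flow cytometry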
Listed binders paired with reported Signal/background
Form field (numeric): enter value without unit.

binder	Signal/background
18179-E1 (scFv, scFv in bacterial lysate, detected with anti-Flag M2) scFv: EVQLLESGGGLVQPGGSLRLSCAASGFTFSNAWMSWVRQAPGKGLEWVGRIKGNTYGGTTDYAAPVKGRFTISRDDSKNTLYLQMNSLKTEDTAVYYCTTPSYSGSYYNYFSVMDVWGQGTTVTVSSGGGGSGGGGSGGGGSELVMTQSPSSLSASVGDRVTITCRTSQSISSYLNWYQQKPGRAPKLLIFAASSLQGGVPSRFSGSGSGTDFTLTISSLQPEDFATYYCQQTYSMPFTFGPGTKVDIK	0.9

The record that follows has no Signal/background shown yet.
Returns the measured Signal/background for the input binder. Input: 18182-E1 (scFv, scFv in bacterial lysate, detected with anti-Flag M2) scFv: EVQLLESGGGLVQPGGSLRLSCAASGFTFSSHAMSWVRQAPGKGLEWVSAISGSGGGTYNADSVKGRFTISRDNSKNTLYLQMNSLRAEDTAAYYCVTGKGVHLGFDYWGQGTLVTVSSGGGGSGGGGSGGGGSELVLTQPPSVSVAPGQTARITCGGNNIGSKSVHWYQQKPGQAPVMVVYDDNDRPSGIPERFSGSNSGNTATLTISRVEAGDEADYYCQVWDSSSDHVVFGGGTKLTVL
0.8

Origin of measurements: patent US20220017636A1
